# System: BDF1 mice, B16 melanoma ip, median survival T/C
# assay explanation: NCI In Vivo Anticancer Drug Screen. Data for tumor model B16 Melanoma (intraperitoneal) in B6D2F1 (BDF1) mice
# experimental conditions: endpoint: median survival time; dose: 100.0 mg/kg/injection; schedule: Q01DX009 (ip); vehicle: saline with Tween-80; higher = longer survival
Toxic doses and inconclusive results are not listed.
readout type: T/C

Name the recorded T/C for CN(C)CCOc1ccc2c(c1)C/C(=C/c1ncc([N+](=O)[O-])n1C)C2=O . 109 % of control

Name the recorded T/C for CCC/C=C/C=C/C1CC(O)C(O)C(=O)C1CO (centres undefined) . 95 % of control

Name the recorded T/C for ClC(Cl)=C(Cl)Cl . 92 % of control

Name the recorded T/C for ClC1CCC[N-]C1.ClC1CCC[N-]C1.O=C(O)CC(=O)O.[Pt+2] (centres undefined) . 93 % of control

Name the recorded T/C for COB1OB(OC)OB(OC)O1 . 104 % of control

Name the recorded T/C for O=C(CCl)Nc1nccs1 . 87 % of control

Name the recorded T/C for COc1ccc(C(=O)C(C)Br)c(OCc2ccccc2)c1OC (centres undefined) . 95 % of control

Name the recorded T/C for COc1cc(C(C)c2cc3c(cc2OCCO)OCO3)cc(OC)c1OC (centres undefined) . 110 % of control

Name the recorded T/C for C(=NC1CCCCC1)c1c[nH]c2ccccc12 . 97 % of control

* * *

Please respond with reported T/C for every item in the list.
# Test system: BDF1 mice, B16 melanoma ip, median survival T/C
# assay explanation: NCI In Vivo Anticancer Drug Screen. Data for tumor model B16 Melanoma (intraperitoneal) in B6D2F1 (BDF1) mice
# experimental conditions: endpoint: median survival time; dose: 4.0 mg/kg/injection; schedule: Q01DX009 (ip); vehicle: saline; higher = longer survival
Inconclusive results and toxic doses are left out.

Name the recorded T/C for CC[n+]1c(-c2ccccc2)c2cc(N)ccc2c2ccc(N)cc21 . 108 % of control

Name the recorded T/C for C1CC[N-]CC1.C1CC[N-]CC1.C1CC[N-]CC1.[Cl][Rh]([Cl])[Cl] . 99 % of control

Name the recorded T/C for O=C1OC(C(O)CO)C(O)=C1O (centres undefined) . 105 % of control

Name the recorded T/C for C1CN1P1(N2CC2)=NP(N2CC2)(N2CC2)=NP(N2CC2)(N2CC2)=NP(N2CC2)(N2CC2)=N1 . 120 % of control

* * *

# System: BDF1 mice, B16 melanoma ip, median survival T/C
# assay explanation: NCI In Vivo Anticancer Drug Screen. Data for tumor model B16 Melanoma (intraperitoneal) in B6D2F1 (BDF1) mice
# experimental conditions: endpoint: median survival time; dose: 3.13 mg/kg/injection; schedule: Q01DX009 (ip); vehicle: water; higher = longer survival
Toxic doses and inconclusive results are not listed.
readout type: T/C

Name the recorded T/C for O=C1C2C(C(=O)N1c1ccc(OCc3ccccc3)cc1)C1c3ccccc3C2C2CCCCN21 (centres undefined) . 103 % of control

Name the recorded T/C for COc1cc2c(cc1OC)/C(=N/N=C1\CCCc3cc(OC)c(OC)cc31)CCC2 . 100 % of control

Name the recorded T/C for CC1OC(OCc2ccc3c(c2)C(=O)c2ccccc2C3=O)CC(N)C1O (centres undefined) . 93 % of control

Name the recorded T/C for Cc1nc(C(=O)O)c(C)c(=O)[nH]1 . 96 % of control
